system: ACHN renal; assay: NCI tumour cell line growth inhibition, 48 h
property: TGI

Return reported TGI; argument: CN(CCc1ccccn1)C(=S)N/N=C/c1ccccn1
1410 nM

Next compound: C=C1C(=O)C23C(CC(OC(C)=O)C1[C@@H]2OC(C)=O)C1(C)C(OC(C)=O)CCC(C)(C)C1C[C@@H]3OC(C)=O (some centres undefined)
2920 nM

Lookup O=C(NNc1ccc([N+](=O)[O-])cc1)C1OC(CO)C(O)C1O (centres undefined)
> 100000 nM

Proceed to CC(C)(C)OC(=O)N[C@@H](Cc1ccccc1)C(=O)N1CC[C@@H](C(=O)N2[C@H]3CC4CC[C@@]3(CS2(=O)=O)C4(C)C)N1
> 100000 nM

###

Recorded TGI by entry
tested on: KM12 colon; assay: NCI tumour cell line growth inhibition, 48 h

| molecule | TGI |
| --- | --- |
| CC(C)S(=O)(=O)n1c(N)nc2ccc(/C(=N/O)c3ccccc3)cc21 | 45.8 µM |

Name the reported TGI value associated with the molecule CC1=C(C(=O)OC(C)C)C(c2cccc([N+](=O)[O-])c2)C(C(=O)OC(CO[N+](=O)[O-])CO[N+](=O)[O-])=C(C)N1 (centres undefined)
12.9 µM

Same lookup for COc1ccc(C2=C(N)c3ccccc3C2=O)cc1 , please.
> 100 µM

Try this molecule next: O=C(NC(Cc1c[nH]c2ccccc12)C(=O)O)/C(=C/c1ccccc1)NC(=O)c1ccccc1 (centres undefined)
> 100 µM

###

system: HOP-62 NSCLC; experiment: NCI tumour cell line growth inhibition, 48 h; in the data active = GI50 below about 0.43 µM; inactive = the rest
Can you answer with just one of these options? T (active), F (inactive)

Field: example entries. Status: answers known.
| molecule | label |
| --- | --- |
| CCN(CC)c1ccc(/C=N\NC(=O)c2cccc(Nc3ccnc(C(F)(F)F)c3)c2)c(O)c1 | T |
| CC(Cl)CC(=O)Nc1ccc2c(c1)oc(=O)c1cc(NC(=O)CC(C)Cl)ccc12 (configuration not stated) | F |
| O.O=[Se](=O)(O)O.[NH-]C1CCCCC1[NH-].[Pt+2] (configuration not stated) | F |

Assay outcome for NC(=O)c1ccc(NC(=O)c2oc3ccccc3c2-c2cnn(-c3ccccc3)c2)cc1 : what was it?
F

Further, for ClCc1ccc(Cn2cnc3ncnc(Cl)c32)cc1 ?
F

Can you handle COc1cc(Nc2ncc(-c3ccccc3)o2)cc(OC)c1OC next?
F

Try the molecule COc1cc(C(=O)c2c(-c3ccccc3)oc3ccccc23)cc(OC)c1O
F

###

system: KM12 colon; assay: NCI tumour cell line growth inhibition, 48 h; in the data active = GI50 below about 0.43 µM; inactive = the rest
One label from this list, please: active, inactive

Some entries whose results are on file:
| compound | label |
| --- | --- |
| COCCn1cc(-c2csc(-c3c[nH]c4ccc(F)cc34)n2)c2cccnc21 | inactive |
| O=C(O)c1c(Cl)c(Cl)c(Cl)c(Cl)c1-c1c2cc(I)c(=O)c(I)c-2oc2c(I)c(O)c(I)cc12 | inactive |

Field: next compound
Tell me the assay call for O=C(O)CCN1C(=O)/C(=C/C(Cl)=C/c2ccccc2)SC1=S please.
inactive

###

tested on: SK-OV-3 ovarian; experiment: NCI tumour cell line growth inhibition, 48 h
property: GI50

| compound | GI50 |
| --- | --- |
| C=C(C)[C@@H]1CC[C@]2(C#N)CC[C@]3(C)[C@H](CC[C@@H]4[C@@]5(C)CCCNC(C)(C)[C@@H]5CC[C@]43C)[C@@H]12 | 11.1 µM |
| COCCOCCOCCOCCOc1ccc2c(c1)C(=O)c1nc3ncccc3c(=O)n1-2 | 2.81 µM |

Would you kindly look at the next entry?
Form: Entry = C/C(=N\n1c(N)c(C#N)c(-c2ccc(Cl)cc2)c(C#N)c1=O)c1cccnc1 | System = SK-OV-3 ovarian | GI50 = ____
> 100 µM
